# PROCEDURE SUMMARY: Biodistribution in BDL rats with and without excess cold compound
# Assay type: in vivo
# CONDITIONS: male, Sprague Dawley, rat, blood, iv, total radioactivity, BDL rats, 15 days post-op, 1 hour post-injection, 10K-fold excess cold Compound 8; read-out: Activity in Blood, Mean
Numbered stars: 1 amine (or outer) side, 2 acyl side, 3 side chain; on linkers, the order of the positions; unused ones are H or OH. Bridge positions count the residues as written; N and C are the ends. Side chains are listed from the residue outwards. Peptide text beside a SMILES is read from it. * marks the point of attachment. X1 = C/C(=N\O)C(C)(C)NCCC(CCNC(C)(C)/C(C)=N/O)CCN*; Glutaryl = O=C(CCCC(=O)[*:2])[*:1]; X2 = NC(=O)COCC(=O)NCCOCCOCCOCCN*
MEASURED METRIC: tissue uptake dose at 1 h
Param answer (str): number followed by unit.

In: Any idea what its tissue uptake dose at 1 h is? The compound is C/C(=N\O)C(C)(C)NCCC(CCNC(=O)CCCC(=O)NCCCC[C@@H]1NC(=O)CSC[C@@H](C(=O)NCCOCCOCCOCCNC(=O)COCC(N)=O)NC(=O)[C@H](Cc2ccccc2)NC(=O)[C@@H]2CSSC[C@H](NC1=O)C(=O)N[C@@H](CCCNC(=N)N)C(=O)NCC(=O)N[C@@H](CC(=O)O)C(=O)N2)CCNC(C)(C)/C(C)=N/O (stereo partly shown) [Compound 8] ({CH2CO}-K([Glutaryl-X1])CRGDCFC-X2; disulfide 2-6; thioether N-8)
Out: 1.6 %ID

---

# PROCEDURE SUMMARY: Biodistribution in BDL rats with and without excess cold compound
# Format: in vivo
# CONDITIONS: male, Sprague Dawley, rat, liver, iv, total radioactivity, BDL rats, 15 days post-op, 1 hour post-injection, 10K-fold excess cold Compound 8; read-out: Activity in Liver, Mean
# Experimental: On the appropriate day post surgery BDL and sham animals were removed and put under isoflurane anaesthesia, then each animal was injected with 0.3 ml intravenously (i.v.) via tail vein (˜3MBq). At the appropriate time point post-injection of the test item, each animal was re-anaesthetised with isoflurane, sacrificed by cervical dislocation weighed and the weight recorded via a barcode scanning system. […]
Numbered stars: 1 amine (or outer) side, 2 acyl side, 3 side chain; on linkers, the order of the positions; unused ones are H or OH. Bridge positions count the residues as written; N and C are the ends. Side chains are listed from the residue outwards. Peptide text beside a SMILES is read from it. * marks the point of attachment. X1 = C/C(=N\O)C(C)(C)NCCC(CCNC(C)(C)/C(C)=N/O)CCN*; Glutaryl = O=C(CCCC(=O)[*:2])[*:1]; X2 = NC(=O)COCC(=O)NCCOCCOCCOCCN*
MEASURED METRIC: tissue uptake dose at 1 h (%ID)
Answer format: numeric, %ID implied, no suffix.

In: Any idea what its tissue uptake dose at 1 h is? The compound is C/C(=N\O)C(C)(C)NCCC(CCNC(=O)CCCC(=O)NCCCC[C@@H]1NC(=O)CSC[C@@H](C(=O)NCCOCCOCCOCCNC(=O)COCC(N)=O)NC(=O)[C@H](Cc2ccccc2)NC(=O)[C@@H]2CSSC[C@H](NC1=O)C(=O)N[C@@H](CCCNC(=N)N)C(=O)NCC(=O)N[C@@H](CC(=O)O)C(=O)N2)CCNC(C)(C)/C(C)=N/O (stereo partly shown) [Compound 8] ({CH2CO}-K([Glutaryl-X1])CRGDCFC-X2; disulfide 2-6; thioether N-8)
Out: 9.81

---

# PROCEDURE SUMMARY: Biodistribution in sham-operated rats with and without excess cold compound
# Format: in vivo
# CONDITIONS: male, Sprague Dawley, rat, kidneys, iv, total radioactivity, 15 days post-op, 1 hour post-injection, no excess, read-out: Activity in Kidneys, Mean
Numbered stars: 1 amine (or outer) side, 2 acyl side, 3 side chain; on linkers, the order of the positions; unused ones are H or OH. Bridge positions count the residues as written; N and C are the ends. Side chains are listed from the residue outwards. Peptide text beside a SMILES is read from it. * marks the point of attachment. X1 = C/C(=N\O)C(C)(C)NCCC(CCNC(C)(C)/C(C)=N/O)CCN*; Glutaryl = O=C(CCCC(=O)[*:2])[*:1]; X2 = NC(=O)COCC(=O)NCCOCCOCCOCCN*
MEASURED METRIC: tissue uptake dose at 1 h

In: Any idea what its tissue uptake dose at 1 h is? The molecule is C/C(=N\O)C(C)(C)NCCC(CCNC(=O)CCCC(=O)NCCCC[C@@H]1NC(=O)CSC[C@@H](C(=O)NCCOCCOCCOCCNC(=O)COCC(N)=O)NC(=O)[C@H](Cc2ccccc2)NC(=O)[C@@H]2CSSC[C@H](NC1=O)C(=O)N[C@@H](CCCNC(=N)N)C(=O)NCC(=O)N[C@@H](CC(=O)O)C(=O)N2)CCNC(C)(C)/C(C)=N/O (stereo partly shown) [Compound 8] ({CH2CO}-K([Glutaryl-X1])CRGDCFC-X2; disulfide 2-6; thioether N-8)
Out: 4.07 %ID

---

# PROCEDURE SUMMARY: Biodistribution in BDL rats with and without excess cold compound
# Format: in vivo
# CONDITIONS: male, Sprague Dawley, rat, heart, iv, total radioactivity, BDL rats, 15 days post-op, 1 hour post-injection, 10K-fold excess cold Compound 8; read-out: Activity in Heart, Mean
Numbered stars: 1 amine (or outer) side, 2 acyl side, 3 side chain; on linkers, the order of the positions; unused ones are H or OH. Bridge positions count the residues as written; N and C are the ends. Side chains are listed from the residue outwards. Peptide text beside a SMILES is read from it. * marks the point of attachment. X1 = C/C(=N\O)C(C)(C)NCCC(CCNC(C)(C)/C(C)=N/O)CCN*; Glutaryl = O=C(CCCC(=O)[*:2])[*:1]; X2 = NC(=O)COCC(=O)NCCOCCOCCOCCN*
MEASURED METRIC: tissue uptake dose at 1 h (%ID)
Answer format: numeric, %ID implied, no suffix.

In: Any idea what its tissue uptake dose at 1 h is? The compound is C/C(=N\O)C(C)(C)NCCC(CCNC(=O)CCCC(=O)NCCCC[C@@H]1NC(=O)CSC[C@@H](C(=O)NCCOCCOCCOCCNC(=O)COCC(N)=O)NC(=O)[C@H](Cc2ccccc2)NC(=O)[C@@H]2CSSC[C@H](NC1=O)C(=O)N[C@@H](CCCNC(=N)N)C(=O)NCC(=O)N[C@@H](CC(=O)O)C(=O)N2)CCNC(C)(C)/C(C)=N/O (stereo partly shown) [Compound 8] ({CH2CO}-K([Glutaryl-X1])CRGDCFC-X2; disulfide 2-6; thioether N-8)
Out: 0.14

---

# PROCEDURE SUMMARY: Biodistribution in sham-operated rats with and without excess cold compound
# Format: in vivo
# CONDITIONS: male, Sprague Dawley, rat, spleen, iv, 3 MBq, total radioactivity, 15 days post-op, 1 hour post-injection, no excess, read-out: Activity in Spleen, Mean
Numbered stars: 1 amine (or outer) side, 2 acyl side, 3 side chain; on linkers, the order of the positions; unused ones are H or OH. Bridge positions count the residues as written; N and C are the ends. Side chains are listed from the residue outwards. Peptide text beside a SMILES is read from it. * marks the point of attachment. X1 = C/C(=N\O)C(C)(C)NCCC(CCNC(C)(C)/C(C)=N/O)CCN*; Glutaryl = O=C(CCCC(=O)[*:2])[*:1]; X2 = NC(=O)COCC(=O)NCCOCCOCCOCCN*
MEASURED METRIC: tissue uptake dose at 1 h (%ID)
Answer format: numeric, %ID implied, no suffix.

In: Any idea what its tissue uptake dose at 1 h is? The molecule is C/C(=N\O)C(C)(C)NCCC(CCNC(=O)CCCC(=O)NCCCC[C@@H]1NC(=O)CSC[C@@H](C(=O)NCCOCCOCCOCCNC(=O)COCC(N)=O)NC(=O)[C@H](Cc2ccccc2)NC(=O)[C@@H]2CSSC[C@H](NC1=O)C(=O)N[C@@H](CCCNC(=N)N)C(=O)NCC(=O)N[C@@H](CC(=O)O)C(=O)N2)CCNC(C)(C)/C(C)=N/O (stereo partly shown) [Compound 8] ({CH2CO}-K([Glutaryl-X1])CRGDCFC-X2; disulfide 2-6; thioether N-8)
Out: 0.29

---

# PROCEDURE SUMMARY: Biodistribution in BDL rats with and without excess cold compound
# Assay type: in vivo
# CONDITIONS: male, Sprague Dawley, rat, skin, iv, total radioactivity, BDL rats, 15 days post-op, 1 hour post-injection, 10K-fold excess cold Compound 8; read-out: Activity in Skin, Mean
Numbered stars: 1 amine (or outer) side, 2 acyl side, 3 side chain; on linkers, the order of the positions; unused ones are H or OH. Bridge positions count the residues as written; N and C are the ends. Side chains are listed from the residue outwards. Peptide text beside a SMILES is read from it. * marks the point of attachment. X1 = C/C(=N\O)C(C)(C)NCCC(CCNC(C)(C)/C(C)=N/O)CCN*; Glutaryl = O=C(CCCC(=O)[*:2])[*:1]; X2 = NC(=O)COCC(=O)NCCOCCOCCOCCN*
MEASURED METRIC: tissue uptake dose at 1 h (%ID)
Answer format: numeric, %ID implied, no suffix.

In: Any idea what its tissue uptake dose at 1 h is? The molecule is C/C(=N\O)C(C)(C)NCCC(CCNC(=O)CCCC(=O)NCCCC[C@@H]1NC(=O)CSC[C@@H](C(=O)NCCOCCOCCOCCNC(=O)COCC(N)=O)NC(=O)[C@H](Cc2ccccc2)NC(=O)[C@@H]2CSSC[C@H](NC1=O)C(=O)N[C@@H](CCCNC(=N)N)C(=O)NCC(=O)N[C@@H](CC(=O)O)C(=O)N2)CCNC(C)(C)/C(C)=N/O (stereo partly shown) [Compound 8] ({CH2CO}-K([Glutaryl-X1])CRGDCFC-X2; disulfide 2-6; thioether N-8)
Out: 13
